Each entry below carries its reported pEC50.
- SUBJECT_OF_TEST: GABAA receptor α3β3γ2s (α3) (Homo sapiens, UniProt P18507+P28472+P34903)
- Construct: Human GABAA receptor alpha 3 subunit amino acid; Human GABAA receptor beta 3 variant 1 subunit amino acid; Human GABAA receptor gamma 2 variant 1 (short) subunit amino acid; expressed in transfected cells
- Sequence (P34903 29-492, one chain of several): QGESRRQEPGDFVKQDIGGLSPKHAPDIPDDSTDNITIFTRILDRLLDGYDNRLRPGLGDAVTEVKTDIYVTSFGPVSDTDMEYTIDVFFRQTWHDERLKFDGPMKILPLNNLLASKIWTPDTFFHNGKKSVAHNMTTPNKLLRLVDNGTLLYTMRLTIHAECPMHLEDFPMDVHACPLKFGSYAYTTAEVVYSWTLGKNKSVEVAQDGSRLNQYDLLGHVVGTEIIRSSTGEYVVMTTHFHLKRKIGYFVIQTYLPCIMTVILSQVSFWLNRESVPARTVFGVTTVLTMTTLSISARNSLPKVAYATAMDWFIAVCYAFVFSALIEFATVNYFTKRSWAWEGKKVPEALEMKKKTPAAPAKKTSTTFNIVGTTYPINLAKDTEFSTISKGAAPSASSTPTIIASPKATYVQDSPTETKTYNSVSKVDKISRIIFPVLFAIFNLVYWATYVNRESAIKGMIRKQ
- TEST_DETAILS: Membrane potential assay, CHO cell line expressing GABAA α3β3γ2s
- Type: cell-based
// scale note: pEC50 = -log10(conc_M); give the bare number

Observe how each entry below is paired with its result.
Observed pEC50, GABAA receptor α3β3γ2s (α3) (Homo sapiens, UniProt P18507+P28472+P34903), C[C@]12CC[C@@H](O)C[C@@H]1CC[C@@H]1[C@@H]2CC[C@]2(C)C(=O)CC[C@@H]12 : 5.95

Observed pEC50, GABAA receptor α3β3γ2s (α3) (Homo sapiens, UniProt P18507+P28472+P34903), CC(C)c1cccc(C(C)C)c1O : 4.89

Observed pEC50, GABAA receptor α3β3γ2s (α3) (Homo sapiens, UniProt P18507+P28472+P34903), CN1C(=O)CCS(=O)(=O)C1c1ccc(Cl)cc1 (stereo not shown) : 8.15

Next:
Observed pEC50, GABAA receptor α3β3γ2s (α3) (Homo sapiens, UniProt P18507+P28472+P34903), NCc1cc(=O)[nH]o1 : 6.44

* * *

- SUBJECT_OF_TEST: GABAA receptor α1β3γ2s (α1) (Homo sapiens, UniProt P14867+P18507+P28472)
- Construct: Human GABAA receptor alpha 1 subunit amino acid; Human GABAA receptor beta 3 variant 1 subunit amino acid; Human GABAA receptor gamma 2 variant 1 (short) subunit amino acid; expressed in transfected cells
- Sequence (P14867 28-456, one chain of several): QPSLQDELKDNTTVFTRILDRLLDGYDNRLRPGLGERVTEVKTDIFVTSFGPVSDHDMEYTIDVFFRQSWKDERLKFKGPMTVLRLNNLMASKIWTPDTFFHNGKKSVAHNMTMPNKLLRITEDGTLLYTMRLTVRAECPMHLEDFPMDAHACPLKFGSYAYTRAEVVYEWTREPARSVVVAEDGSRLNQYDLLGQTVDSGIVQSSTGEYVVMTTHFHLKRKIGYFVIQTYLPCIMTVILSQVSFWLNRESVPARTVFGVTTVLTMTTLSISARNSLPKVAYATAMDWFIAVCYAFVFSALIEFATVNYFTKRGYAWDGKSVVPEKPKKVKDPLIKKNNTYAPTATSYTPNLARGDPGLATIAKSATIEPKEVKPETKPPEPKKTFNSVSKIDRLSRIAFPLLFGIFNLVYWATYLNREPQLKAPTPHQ
- TEST_DETAILS: Membrane potential assay, CHO cell line expressing GABAA α1β3γ2s
- Type: cell-based
Each entry below carries its reported pEC50.
// scale note: pEC50 = -log10(conc_M); give the bare number

Observe how each entry below is paired with its result.
Just so you know, measured pEC50 for C[C@]12CC[C@@H](O)C[C@@H]1CC[C@@H]1[C@@H]2CC[C@]2(C)C(=O)CC[C@@H]12 came out at 5.83

Just so you know, measured pEC50 for CN1C(=O)CCS(=O)(=O)C1c1ccc(Cl)cc1 (stereo not shown) came out at 8.76

Just so you know, measured pEC50 for CC(C)c1cccc(C(C)C)c1O came out at 4.48

Please look at the following compound next.
Just so you know, measured pEC50 for NCc1cc(=O)[nH]o1 came out at 5.40

* * *

Each entry below carries its reported pEC50.
- SUBJECT_OF_TEST: GABAA receptor α3β3γ2s (α3) (Homo sapiens, UniProt P18507+P28472+P34903)
- Construct: Human GABAA receptor alpha 3 subunit amino acid; Human GABAA receptor beta 3 variant 1 subunit amino acid; Human GABAA receptor gamma 2 variant 1 (short) subunit amino acid; expressed in transfected cells
- TEST_DETAILS: Membrane potential assay, CHO cell line expressing GABAA α3β3γ2s
- Assay type: cell-based
- EXPERIMENTAL_SETUP: membrane potential assay, CHO α3β3γ2s cell line; read-out: EC50 Values α3
Structures can show the parent of a compound that is named as a salt.
// scale note: pEC50 = -log10(conc_M); give the bare number

Observe how each entry below is paired with its result.
Just so you know, measured pEC50 for C[C@]12CC[C@@H](O)C[C@@H]1CC[C@@H]1[C@@H]2CC[C@]2(C)[C@@H](C(=O)CO)CC[C@@H]12 came out at 7.10

Just so you know, measured pEC50 for O=S(=O)(O)C1CCNCC1 came out at 5.08

Just so you know, measured pEC50 for O=C(O)C1=CCNCC1 [Isoguvacine hydrochloride] came out at 5.17

Just so you know, measured pEC50 for OCCN(CCO)c1nc(N2CCCCC2)c2nc(N(CCO)CCO)nc(N3CCCCC3)c2n1 came out at 5.43

Just so you know, measured pEC50 for CC(=O)[C@H]1CC[C@H]2[C@@H]3CC[C@H]4C[C@H](O)CC[C@]4(C)[C@H]3CC[C@]12C came out at 7.10

Just so you know, measured pEC50 for COc1cc(/C=C(\C#N)C(=O)c2ccc(O)c(O)c2)cc(I)c1O came out at 5.66

Please look at the following compound next.
Just so you know, measured pEC50 for CCOC(=O)c1cnc2c(cnn2CC)c1NN=C(C)C [Etazolate] came out at 6.24

* * *

- SUBJECT_OF_TEST: GABAA receptor α2β3γ2s (α2) (Homo sapiens, UniProt P18507+P28472+P47869, A343T)
- Construct: Human GABAA receptor alpha 2 subunit amino acid; Human GABAA receptor beta 3 variant 1 subunit amino acid; Human GABAA receptor gamma 2 variant 1 (short) subunit amino acid; expressed in transfected cells
- Sequence (P47869 29-451 A343T, one chain of several): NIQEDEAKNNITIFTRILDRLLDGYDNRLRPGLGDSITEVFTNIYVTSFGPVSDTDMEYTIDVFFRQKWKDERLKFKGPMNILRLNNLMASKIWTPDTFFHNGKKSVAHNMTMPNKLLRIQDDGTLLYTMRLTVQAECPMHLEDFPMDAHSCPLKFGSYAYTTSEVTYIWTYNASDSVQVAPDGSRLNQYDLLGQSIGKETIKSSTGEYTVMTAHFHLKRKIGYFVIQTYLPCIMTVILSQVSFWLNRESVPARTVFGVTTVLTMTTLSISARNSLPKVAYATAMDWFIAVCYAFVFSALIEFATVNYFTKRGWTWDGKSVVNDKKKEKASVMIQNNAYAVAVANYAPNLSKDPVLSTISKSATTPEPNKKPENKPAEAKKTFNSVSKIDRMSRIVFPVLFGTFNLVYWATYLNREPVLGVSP
- TEST_DETAILS: Membrane potential assay, CHO cell line expressing GABAA α2β3γ2s
- Type: cell-based
- EXPERIMENTAL_SETUP: membrane potential assay, CHO α2β3γ2s cell line
Where a name gives a salt, the structure may show the parent alone.
Each entry below carries its reported EC50.
Expressed in µM, but write only the number.

Just so you know, measured EC50 for OCCN(CCO)c1nc(N2CCCCC2)c2nc(N(CCO)CCO)nc(N3CCCCC3)c2n1 came out at 3.68

Just so you know, measured EC50 for CCCCNc1c(C(=O)OCC)c(C)nc2c1cnn2CC [Tracazolate] came out at 8.9

Just so you know, measured EC50 for O=C(O)C1=CCNCC1 [Isoguvacine hydrochloride] came out at 3.42

Next:
Just so you know, measured EC50 for CC(C)(C)c1cc(C=C(C#N)C#N)cc(C(C)(C)C)c1O came out at 0.88

Just so you know, measured EC50 for C[C@]12CC[C@@H](O)C[C@@H]1CC[C@@H]1[C@@H]2CC[C@]2(C)[C@@H](C(=O)CO)CC[C@@H]12 came out at 0.123

* * *

Each entry below carries its reported pEC50.
- SUBJECT_OF_TEST: GABAA receptor α5β3γ2s (α5) (Homo sapiens, UniProt P18507+P28472+P31644)
- Construct: Human GABAA receptor alpha 5 subunit amino acid; Human GABAA receptor beta 3 variant 1 subunit amino acid; Human GABAA receptor gamma 2 variant 1 (short) subunit amino acid; expressed in transfected cells
- Sequence (P31644 32-462): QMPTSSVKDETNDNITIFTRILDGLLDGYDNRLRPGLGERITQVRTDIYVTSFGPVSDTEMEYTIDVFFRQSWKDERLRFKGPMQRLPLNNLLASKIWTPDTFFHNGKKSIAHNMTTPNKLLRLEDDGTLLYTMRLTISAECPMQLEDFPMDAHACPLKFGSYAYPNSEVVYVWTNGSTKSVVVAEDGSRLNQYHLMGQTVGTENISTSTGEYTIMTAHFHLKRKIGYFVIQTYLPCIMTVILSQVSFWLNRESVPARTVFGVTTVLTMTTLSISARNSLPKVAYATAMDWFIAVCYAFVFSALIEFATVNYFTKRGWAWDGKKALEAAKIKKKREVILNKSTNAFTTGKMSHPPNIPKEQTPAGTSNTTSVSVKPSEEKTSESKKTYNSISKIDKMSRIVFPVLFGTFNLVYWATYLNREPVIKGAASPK
- Sequence (P28472 26-473): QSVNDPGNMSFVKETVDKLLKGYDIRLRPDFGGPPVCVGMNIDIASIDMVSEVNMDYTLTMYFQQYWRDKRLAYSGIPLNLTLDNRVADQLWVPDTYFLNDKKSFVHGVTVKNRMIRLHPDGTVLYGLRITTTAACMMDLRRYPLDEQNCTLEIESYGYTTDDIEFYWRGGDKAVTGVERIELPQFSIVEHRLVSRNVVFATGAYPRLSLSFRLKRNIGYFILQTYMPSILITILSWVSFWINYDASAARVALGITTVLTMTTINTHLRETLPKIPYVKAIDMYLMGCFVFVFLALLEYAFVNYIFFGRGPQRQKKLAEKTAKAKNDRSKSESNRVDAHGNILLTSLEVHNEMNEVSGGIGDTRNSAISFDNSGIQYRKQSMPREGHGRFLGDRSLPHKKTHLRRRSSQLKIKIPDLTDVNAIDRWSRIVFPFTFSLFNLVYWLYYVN
- Sequence (P18507 40-467 isoform P18507-1 limits assumed): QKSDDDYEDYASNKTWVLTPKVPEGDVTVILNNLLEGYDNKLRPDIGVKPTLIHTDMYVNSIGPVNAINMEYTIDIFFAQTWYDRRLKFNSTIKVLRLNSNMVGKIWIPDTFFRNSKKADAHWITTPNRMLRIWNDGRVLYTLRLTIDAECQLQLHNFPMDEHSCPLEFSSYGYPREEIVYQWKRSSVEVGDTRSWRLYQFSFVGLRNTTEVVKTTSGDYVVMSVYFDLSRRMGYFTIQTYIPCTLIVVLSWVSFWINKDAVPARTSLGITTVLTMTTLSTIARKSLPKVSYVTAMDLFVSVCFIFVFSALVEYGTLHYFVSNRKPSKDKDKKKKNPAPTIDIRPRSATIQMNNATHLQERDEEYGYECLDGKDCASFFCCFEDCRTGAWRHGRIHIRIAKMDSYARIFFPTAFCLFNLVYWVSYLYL
- TEST_DETAILS: Membrane potential assay, CHO cell line expressing GABAA α5β3γ2s
- Format: cell-based
- EXPERIMENTAL_SETUP: membrane potential assay, CHO α5β3γ2s cell line; read-out: EC50 Values α5
// scale note: pEC50 = -log10(conc_M); give the bare number

Observe how each entry below is paired with its result.
Just so you know, measured pEC50 for CCOC(=O)c1cnc2c(cnn2CC)c1NN=C(C)C [Etazolate] came out at 6.55

Just so you know, measured pEC50 for O=C(Nc1ccc([N+](=O)[O-])cc1Cl)c1cc(Cl)ccc1O [Niclosamide] came out at 6.16

Next:
Just so you know, measured pEC50 for CCCCNc1c(C(=O)OCC)c(C)nc2c1cnn2CC [Tracazolate] came out at 6.12

* * *

- SUBJECT_OF_TEST: GABAA receptor α2β3γ2s (α2) (Homo sapiens, UniProt P18507+P28472+P47869)
- Construct: Human GABAA receptor alpha 2 subunit amino acid; Human GABAA receptor beta 3 variant 1 subunit amino acid; Human GABAA receptor gamma 2 variant 1 (short) subunit amino acid
- Sequence (P47869 29-451 A343T, one chain of several): as the sequence (P47869 29-451 A343T, one chain of several) above
- TEST_DETAILS: Membrane potential assay, CHO cell line expressing GABAA α2β3γ2s
Each entry below carries its reported EC50.
Expressed in nM, but write only the number.

Just so you know, measured EC50 for CN1C(=O)CCS(=O)(=O)C1c1ccc(Cl)cc1 (centres unmarked) [Chlormezanone] came out at 5.42

Just so you know, measured EC50 for C[C@]12CC[C@@H](O)C[C@@H]1CC[C@@H]1[C@@H]2CC[C@]2(C)C(=O)CC[C@@H]12 [Androsterone] came out at 1520

Just so you know, measured EC50 for NCc1cc(=O)[nH]o1 [Muscimol] came out at 675

Just so you know, measured EC50 for CC(=O)[C@H]1CC[C@H]2[C@@H]3CC[C@H]4C[C@H](O)CC[C@]4(C)[C@H]3CC[C@]12C [5-alpha-Pregnan-3alpha-ol-20-one] came out at 140

Just so you know, measured EC50 for CC(C)c1cccc(C(C)C)c1O [Propofol] came out at 42800

* * *

- SUBJECT_OF_TEST: GABAA receptor α2β3γ2s (α2) (Homo sapiens, UniProt P18507+P28472+P47869, A343T)
- Construct: Human GABAA receptor alpha 2 subunit amino acid; Human GABAA receptor beta 3 variant 1 subunit amino acid; Human GABAA receptor gamma 2 variant 1 (short) subunit amino acid
- TEST_DETAILS: Membrane potential assay, CHO cell line expressing GABAA α2β3γ2s
- EXPERIMENTAL_SETUP: membrane potential assay, CHO α2β3γ2s cell line
- Procedure: As will be appreciated by those of skill in the art, any reagent that is suitable for use with a chosen host cell may be used to introduce a nucleic acid, e.g. plasmid, oligonucleotide, labeled oligonucleotide, into a host cell with proper optimization. […] Cells were plated 24 hours prior to assay at 10-25,000 cells per well in 384 well plates in growth media (Ham's F-12 media plus FBS and glutamine). […] The plates were read for 90 seconds. […]
VALUE_KIND: EC50 (nM)
Expressed in nM, but write only the number.

Observe how each entry below is paired with its result.
Just so you know, measured EC50 for CCOC(=O)c1cnc2c(cnn2CC)c1NN=C(C)C [Etazolate] came out at 790

Just so you know, measured EC50 for O=S(=O)(O)C1CCNCC1 came out at 20000

Please look at the following compound next.
Just so you know, measured EC50 for COc1cc(/C=C(\C#N)C(=O)c2ccc(O)c(O)c2)cc(I)c1O came out at 1500
